EXPERIMENTAL_TARGET: Interleukin-1 receptor-associated kinase 4 (Homo sapiens);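 further: reported figure is the mean inhibition of IRAK4 activity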
CONDITION_SET: at 0.1 µM
Entries annotated with measured inhibition
Please reply with the bare figure in % and do not write the unit itself.

compound=Fc1ccc(-c2ncn(CCCN3CCOCC3)c2-c2ccncc2)cc1 measure=inhibition reading_unit=% endpoint_result=3.04

Report inhibition for CN(c1ccc(NC(=O)Nc2c(Cl)cccc2Cl)cc1)c1ccnc(Nc2cccc(CS(C)(=O)=O)c2)n1 please.
0.17

Report inhibition for COc1ccc(-c2ccc3c(NC(=O)C4CC4)n[nH]c3n2)cc1 please.
2.75

====

EXPERIMENTAL_TARGET: Casein kinase I isoform gamma-3 (Homo sapiens);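 further: reported value is the mean percent inhibition of the kinase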
CONDITION_SET: at 0.1 µM
Entries annotated with measured inhibition
Entry format: amount then unit.

Below: 3 molecules and their reported inhibition.
chemical_structure=C[C@@H](Oc1cc(-n2cnc3ccc(OC4CCN(C)CC4)cc32)sc1C(N)=O)c1ccccc1Cl experimental_target="Casein kinase I isoform gamma-3 (Homo sapiens)" endpoint_result=-1.77%
chemical_structure=CN(C)CCOc1ccc(-c2cc(-c3ccc4c(c3)CCC4=NO)c(-c3ccncc3)o2)cc1 experimental_target="Casein kinase I isoform gamma-3 (Homo sapiens)" endpoint_result=-0.76%
chemical_structure=COc1cc2ncn(-c3cc(OCCc4ccccc4)c(C(N)=O)s3)c2cc1OC experimental_target="Casein kinase I isoform gamma-3 (Homo sapiens)" endpoint_result=2.44%

Proceeding to the next molecule to report its inhibition.
Report inhibition for COc1cccc(-n2cnc3c(N/N=C/c4ccncc4)ncnc32)c1 please.
-3.39%
